Cited source: patent US20090143279A1

test system: OXPHOS gene expression; format: cell-based, mouse; conditions: normalized composite Z-score vs mock-treated (DMSO) wells; Conc 20 μM
Give GE-HTS for every item shown.
Numbers only.

- COc1ccc([C@H]2Oc3cc(OC)cc(OC)c3C[C@H]2O)cc1 [epiafzelechin trimethyl ether]: 0.019
- OC[C@H]1O[C@@H](O[C@H]2[C@H](O)[C@@H](O)[C@H](O)O[C@@H]2CO)[C@H](O)[C@@H](O)[C@@H]1O [cellobiose (D[+])]: −0.127
- COc1ccc(-c2cc(=O)c3ccc(OC)cc3o2)cc1: 1.306

Working through the 4 compounds below one at a time, give GE-HTS for each.
1. CC1(C)C(=O)CC[C@@]2(C)C1C[C@@H](O)[C@@]1(C)C3=CC(=O)O[C@@H](c4ccoc4)[C@]3(C)CCC21 (stereo partly shown) [dihydro-7-desacetyldeoxygedunin]
2. CC1(C)C2CC(=O)[C@]3(C)C(CC[C@@]4(C)[C@H](c5ccoc5)OC(=O)C5OC543)[C@@]2(C)[C@@H](O)C[C@H]1O (stereo partly shown)
3. C=C1CCC=C(C)C(=O)CC2C(C)CC12 (stereo not shown)
4. O=C(Oc1cc(O)cc2c1C[C@@H](OC(=O)c1cc(O)c(O)c(O)c1)[C@@H](c1cc(O)c(O)c(O)c1)O2)c1cc(O)c(O)c(O)c1 [epigallocatechin 3,5-digallate]

a:
["−0.961", "−0.665", "−0.016", "−1.581"]
